- test_method_notes: toxicity analysis: uptake of neutral red dye
- Assay type: cell-based
- stated_conditions: 1000 μg/ml; triplicate cultures, ± standard deviation; read-out: Neutral Red Dye Uptake at Indicated Drug Concentration
value_kind: viability (%)
Report only the number, with the unit % understood.

Lookup: Fill in reported viability for this entry: Nc1ccn([C@H]2CC[C@@H](CO)O2)c(=O)n1
Found: 12

* * *

- test_method_notes: toxicity analysis: uptake of neutral red dye
- Assay type: cell-based
- stated_conditions: 3000 μg/ml; triplicate cultures, ± standard deviation; read-out: Neutral Red Dye Uptake at Indicated Drug Concentration
value_kind: viability (%)
Provide only the numeric value, understood in %.

Lookup: Output measured viability for this item: Nc1ccn([C@H]2CC[C@@H](CO)O2)c(=O)n1 [2',3'-ddC, 2,3'-dideoxycytosine]
Found: 40
